Reference for the values: ChEMBL document CHEMBL3745592

# PROCEDURE_TEXT: Antioxidant activity assessed as DPPH free radical scavenging activity at 25 ug/ml after 20 mins by UV-vis spectrophotometry analysis
# Type: physicochemical
MEASUREMENT_LABEL: inhibition (INH) (%)
Dear colleague, please return just the value in %, with no unit written.

Illustrative cases are given below, each with its answer.
C/C(=N\Nc1ccc(Cl)cc1)c1cc2c(C)cc(=O)oc2c(/C(C)=N/Nc2ccc(Cl)cc2)c1O; 10.73
COc1ccc(N/N=C(\C)c2cc3c(C)cc(=O)oc3c(/C(C)=N/Nc3ccc(OC)cc3)c2O)cc1; 14.57

// recorded inhibition (INH) for `Cc1cc(=O)oc2c(-c3nn(-c4ccc(Cl)cc4)cc3C=O)c(O)c(-c3nn(-c4ccc(Cl)cc4)cc3C=O)cc12` : 15.58

// recorded inhibition (INH) for `Cc1cc(=O)oc2c(-c3nn(-c4ccc(F)cc4)cc3C=O)c(O)c(-c3nn(-c4ccc(F)cc4)cc3C=O)cc12` : 11.62

// recorded inhibition (INH) for `Cc1cc(=O)oc2c(-c3nn(-c4ccccc4)cc3C=O)c(O)c(-c3nn(-c4ccccc4)cc3C=O)cc12` : 15.1

###

In this section we review reported inhibition (INH) values for a set of compounds.
# PROCEDURE_TEXT: Antioxidant activity assessed as DPPH free radical scavenging activity at 75 ug/ml after 20 mins by UV-vis spectrophotometry analysis
# Assay type: physicochemical
Dear colleague, please return just the value in %, with no unit written.

Illustrative cases are given below, each with its answer.
C/C(=N\Nc1ccc(C)cc1)c1cc2c(C)cc(=O)oc2c(/C(C)=N/Nc2ccc(C)cc2)c1O; 19.43
O=C1O[C@H]([C@@H](O)CO)C(O)=C1O [ASCORBIC ACID]; 21.98
Cc1cccc(-n2cc(C=O)c(-c3cc4c(C)cc(=O)oc4c(-c4nn(-c5cccc(C)c5)cc4C=O)c3O)n2)c1; 18.78

As a next step, examine the compound that follows.
// recorded inhibition (INH) for `COc1ccc(N/N=C(\C)c2cc3c(C)cc(=O)oc3c(/C(C)=N/Nc3ccc(OC)cc3)c2O)cc1` : 19.7

###

# PROCEDURE_TEXT: Antioxidant activity assessed as DPPH free radical scavenging activity at 75 ug/ml after 20 mins by UV-vis spectrophotometry analysis
# Type: physicochemical
MEASUREMENT_LABEL: inhibition (INH) (%)
Dear colleague, please return just the value in %, with no unit written.

Illustrative cases are given below, each with its answer.
C/C(=N\Nc1cccc(C)c1)c1cc2c(C)cc(=O)oc2c(/C(C)=N/Nc2cccc(C)c2)c1O; 13.97
Cc1cc(=O)oc2c(-c3nn(-c4ccc(F)cc4)cc3C=O)c(O)c(-c3nn(-c4ccc(F)cc4)cc3C=O)cc12; 17.69
COc1ccc(-n2cc(C=O)c(-c3cc4c(C)cc(=O)oc4c(-c4nn(-c5ccc(OC)cc5)cc4C=O)c3O)n2)cc1; 21.14
Cc1cc(=O)oc2c(-c3nn(-c4ccc(Cl)cc4)cc3C=O)c(O)c(-c3nn(-c4ccc(Cl)cc4)cc3C=O)cc12; 20.63
C/C(=N\Nc1ccc(Cl)cc1)c1cc2c(C)cc(=O)oc2c(/C(C)=N/Nc2ccc(Cl)cc2)c1O; 17.41

// recorded inhibition (INH) for `Cc1ccc(-n2cc(C=O)c(-c3cc4c(C)cc(=O)oc4c(-c4nn(-c5ccc(C)cc5)cc4C=O)c3O)n2)cc1` : 20.75

###

# PROCEDURE_TEXT: Antioxidant activity assessed as hydroxyl radical scavenging activity at 75 ug/ml after 60 mins
# Type: physicochemical
# CONDITION_DETAILS: 1 h
MEASUREMENT_LABEL: inhibition (INH)
Field note: include the unit after the figure.

Illustrative cases are given below, each with its answer.
Cc1ccc(-n2cc(C=O)c(-c3cc4c(C)cc(=O)oc4c(-c4nn(-c5ccc(C)cc5)cc4C=O)c3O)n2)cc1; 27.07%
Cc1cccc(-n2cc(C=O)c(-c3cc4c(C)cc(=O)oc4c(-c4nn(-c5cccc(C)c5)cc4C=O)c3O)n2)c1; 26.49%
Cc1cc(=O)oc2c(-c3nn(-c4ccc(F)cc4)cc3C=O)c(O)c(-c3nn(-c4ccc(F)cc4)cc3C=O)cc12; 21.27%
COc1ccc(-n2cc(C=O)c(-c3cc4c(C)cc(=O)oc4c(-c4nn(-c5ccc(OC)cc5)cc4C=O)c3O)n2)cc1; 29.4%

// recorded inhibition (INH) for `C/C(=N\Nc1ccc(F)cc1)c1cc2c(C)cc(=O)oc2c(/C(C)=N/Nc2ccc(F)cc2)c1O` : 17.33%

// recorded inhibition (INH) for `Cc1cc(=O)oc2c(-c3nn(-c4ccc(Cl)cc4)cc3C=O)c(O)c(-c3nn(-c4ccc(Cl)cc4)cc3C=O)cc12` : 24.77%

// recorded inhibition (INH) for `Cc1cc(=O)oc2c(-c3nn(-c4ccccc4)cc3C=O)c(O)c(-c3nn(-c4ccccc4)cc3C=O)cc12` : 25.9%

// recorded inhibition (INH) for COc1ccc(O)c(C(C)(C)C)c1.COc1ccc(O)cc1C(C)(C)C [BUTYLATED HYDROXYANISOLE] : 25.58%

// recorded inhibition (INH) for `C/C(=N\Nc1ccc(Cl)cc1)c1cc2c(C)cc(=O)oc2c(/C(C)=N/Nc2ccc(Cl)cc2)c1O` : 23.49%

###

# PROCEDURE_TEXT: Antioxidant activity assessed as hydroxyl radical scavenging activity at 75 ug/ml after 60 mins
# Type: physicochemical
# CONDITION_DETAILS: 1 h
MEASUREMENT_LABEL: inhibition (INH) (%)
Dear colleague, please return just the value in %, with no unit written.

Illustrative cases are given below, each with its answer.
C/C(=N\Nc1cccc(C)c1)c1cc2c(C)cc(=O)oc2c(/C(C)=N/Nc2cccc(C)c2)c1O; 24.22
C/C(=N\Nc1ccccc1)c1cc2c(C)cc(=O)oc2c(/C(C)=N/Nc2ccccc2)c1O; 24.36
C/C(=N\Nc1ccc(C)cc1)c1cc2c(C)cc(=O)oc2c(/C(C)=N/Nc2ccc(C)cc2)c1O; 25.54

As a next step, examine the compound that follows.
// recorded inhibition (INH) for `COc1ccc(N/N=C(\C)c2cc3c(C)cc(=O)oc3c(/C(C)=N/Nc3ccc(OC)cc3)c2O)cc1` : 26.36

###

In this section we review reported inhibition (INH) values for a set of compounds.
# PROCEDURE_TEXT: Antioxidant activity assessed as DPPH free radical scavenging activity at 100 ug/ml after 20 mins by UV-vis spectrophotometry analysis
# Format: physicochemical
Dear colleague, please return just the value in %, with no unit written.

Illustrative cases are given below, each with its answer.
Cc1ccc(-n2cc(C=O)c(-c3cc4c(C)cc(=O)oc4c(-c4nn(-c5ccc(C)cc5)cc4C=O)c3O)n2)cc1; 24.56
C/C(=N\Nc1ccc(C)cc1)c1cc2c(C)cc(=O)oc2c(/C(C)=N/Nc2ccc(C)cc2)c1O; 22.45
C/C(=N\Nc1cccc(C)c1)c1cc2c(C)cc(=O)oc2c(/C(C)=N/Nc2cccc(C)c2)c1O; 17.29
Cc1cccc(-n2cc(C=O)c(-c3cc4c(C)cc(=O)oc4c(-c4nn(-c5cccc(C)c5)cc4C=O)c3O)n2)c1; 24.02
C/C(=N\Nc1ccccc1)c1cc2c(C)cc(=O)oc2c(/C(C)=N/Nc2ccccc2)c1O; 22.22

// recorded inhibition (INH) for `Cc1cc(=O)oc2c(-c3nn(-c4ccccc4)cc3C=O)c(O)c(-c3nn(-c4ccccc4)cc3C=O)cc12` : 23.6

// recorded inhibition (INH) for `O=C1O[C@H]([C@@H](O)CO)C(O)=C1O` : 24.25

// recorded inhibition (INH) for `Cc1cc(=O)oc2c(-c3nn(-c4ccc(Cl)cc4)cc3C=O)c(O)c(-c3nn(-c4ccc(Cl)cc4)cc3C=O)cc12` : 23.61

// recorded inhibition (INH) for `C/C(=N\Nc1ccc(F)cc1)c1cc2c(C)cc(=O)oc2c(/C(C)=N/Nc2ccc(F)cc2)c1O` : 17.45

// recorded inhibition (INH) for `COc1ccc(N/N=C(\C)c2cc3c(C)cc(=O)oc3c(/C(C)=N/Nc3ccc(OC)cc3)c2O)cc1` : 22.4

// recorded inhibition (INH) for `C/C(=N\Nc1ccc(Cl)cc1)c1cc2c(C)cc(=O)oc2c(/C(C)=N/Nc2ccc(Cl)cc2)c1O` : 20.62

// recorded inhibition (INH) for `COc1ccc(-n2cc(C=O)c(-c3cc4c(C)cc(=O)oc4c(-c4nn(-c5ccc(OC)cc5)cc4C=O)c3O)n2)cc1` : 24.59

// recorded inhibition (INH) for `Cc1cc(=O)oc2c(-c3nn(-c4ccc(F)cc4)cc3C=O)c(O)c(-c3nn(-c4ccc(F)cc4)cc3C=O)cc12` : 19.44
